ASSAYED_SYSTEM: T1, mouse IL-2Rγ expressed on cells (MC/9) (mouse) (UniProt P34902)
T1 sequence (looked up): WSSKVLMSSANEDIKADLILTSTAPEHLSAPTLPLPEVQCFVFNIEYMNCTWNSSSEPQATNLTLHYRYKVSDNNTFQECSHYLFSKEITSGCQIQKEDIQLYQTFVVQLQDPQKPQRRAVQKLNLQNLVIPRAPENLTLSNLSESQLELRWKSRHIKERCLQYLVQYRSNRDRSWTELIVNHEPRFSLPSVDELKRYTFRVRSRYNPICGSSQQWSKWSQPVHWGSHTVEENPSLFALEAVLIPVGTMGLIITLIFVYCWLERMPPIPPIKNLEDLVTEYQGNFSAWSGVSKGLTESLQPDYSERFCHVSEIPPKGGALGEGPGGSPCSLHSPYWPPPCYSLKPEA
PROCEDURE_SUMMARY: flow cytometry on MC/9 cells (endogenous mouse IL-2Rg), antibody 10 ug/ml
EXPERIMENTAL_READOUT: Raw MFI (MFI)
Give the number; MFI is assumed, so skip it.

Ask: Indicate its recorded Raw MFI; the binder in question is H4H12863P (antibody, human IgG4 S228P, kappa, V domains shown) VH: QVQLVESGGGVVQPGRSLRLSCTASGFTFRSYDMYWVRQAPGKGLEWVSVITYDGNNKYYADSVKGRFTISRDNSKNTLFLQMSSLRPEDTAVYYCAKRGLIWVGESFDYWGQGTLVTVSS VL: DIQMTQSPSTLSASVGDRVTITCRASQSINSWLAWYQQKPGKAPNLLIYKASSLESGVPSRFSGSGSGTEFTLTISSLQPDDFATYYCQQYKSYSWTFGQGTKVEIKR
Result: 185

Ask: Indicate its recorded Raw MFI; the binder in question is H4H12900P (antibody, human IgG4 S228P, kappa, V domains shown) VH: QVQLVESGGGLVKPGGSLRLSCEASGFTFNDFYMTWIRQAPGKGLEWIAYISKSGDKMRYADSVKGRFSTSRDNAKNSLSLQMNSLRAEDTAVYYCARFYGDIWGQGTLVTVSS VL: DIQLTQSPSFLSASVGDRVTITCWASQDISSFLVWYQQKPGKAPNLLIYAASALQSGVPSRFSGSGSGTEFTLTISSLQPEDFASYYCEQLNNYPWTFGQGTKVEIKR
Result: 128
